# Assay Method Text: Tolerability in Sprague-Dawley rats: body weight and organ weight (Example 35)
# Format: in vivo
# Condition Context: 50 mg/kg s.c. twice per week for 6 weeks, vs saline control, normalized to body weight
Test Readout: Percent change in organ weight: Liver

416838 (antisense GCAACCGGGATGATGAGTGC; 5-10-5 gapmer, further chemistry not given here) [compound 416838]
+8%

-- ask For the substance 417003 (antisense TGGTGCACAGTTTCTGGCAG; 2-13-5 gapmer chemistry, further chemistry not given here) [compound 417003] , give its reported Percent change in organ weight: Liver.
-- reply +51%

-- ask For the substance 416858 (antisense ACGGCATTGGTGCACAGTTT; 5-10-5 gapmer, further chemistry not given here) [compound 416858] , give its reported Percent change in organ weight: Liver.
-- reply +8%

-- ask For the substance 416826 (antisense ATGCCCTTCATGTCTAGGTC; 5-10-5 gapmer, further chemistry not given here) [compound 416826] , give its reported Percent change in organ weight: Liver.
-- reply +81%

-- ask For the substance 416864 (antisense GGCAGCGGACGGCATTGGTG; 5-10-5 gapmer, further chemistry not given here) [compound 416864] , give its reported Percent change in organ weight: Liver.
-- reply +16%
